The measurements presented in this section are drawn from PubChem BioAssay (Tox21).

assayOverview: qHTS assay to identify small molecule antagonists of the glucocorticoid receptor (GR) signaling pathway - cell viability counter screen (AID 720693); note: % is set by controls: 0 for no effect and ±100 for the full control effect; nearly all actives have a fitted effect of over 55% in size
conditionDescription: GR-bla HeLa viability, CellTiter-Glo luminescence, 18 h, with 5 nM dexamethasone present; series mostly up to 58.5 µM
Text: National Center for Advancing Translational Sciences [NCATS] NIH Chemical Genomics Center [NCGC] U.S. Environmental Protection Agency [EPA] National Institutes of Environmental Health Sciences [NIEHS] National Toxicology Program [NTP] U.S. Food and Drug Administration [FDA] The Glucocorticoid receptor (GR) is one of the members of the nuclear receptor family of ligand-dependent transcription factors. […] The activation of the reporter gene under culture conditions can be detected by fluorescence intensity. […]
Inconclusive results are not listed. Active and inactive are the calls of the source. Calls come from the whole dose curve; as a rule, active = well fitted cell-killing curve with a large enough effect in the repeat runs; inconclusive = weak or mixed curves, or effect the other way; inactive = no such curve, though single readings can be large or run the other way.
measuredMetric: viability change, negative = cytotoxic

>>> datavalue("Brc1c(NC2=NCCN2)ccc2nccnc12")
"inactive"
>>> datavalue("CC[N+](C)(C)c1cccc(O)c1")
"inactive"
>>> datavalue("NS(=O)(=O)c1cc(C(=O)O)cc(N2CCCC2)c1Oc1ccccc1")
"inactive"

###

assayOverview: qHTS assay to identify small molecule agonists of the androgen receptor (AR) signaling pathway in the presence of an antagonist - cell viability counter screen (AID 1259379);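 note: MDA-kb2 human breast cancer cells carrying an MMTV luciferase reporter; % is set by controls: 0 for no effect and ±100 for the full control effect; nearly all actives have a fitted effect of over 25% in size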
conditionDescription: MDA-kb2 viability, CellTiter-Fluor, 16 h; series mostly up to 92.4 µM
Inconclusive results are not listed. Activity calls are given as the source filed them. Calls come from the whole dose curve; as a rule, active = well fitted cell-killing curve with a large enough effect in the repeat runs; inconclusive = weak or mixed curves, or effect the other way; inactive = flat fitted curve, though single readings scatter.
measuredMetric: activity change, negative = cytotoxicity

>>> datavalue("CN1N=C(C(N)=O)CCC1=O")
"inactive"
>>> datavalue("CC[N+](C)(C)c1cccc(O)c1")
"inactive"
>>> datavalue("COC(=O)CC(C)=O")
"inactive"
>>> datavalue("CCCCCCCCCCCCCC=O")
"-0.261% [at 8.39 µM] (inactive)"
>>> datavalue("CCc1ccc(O)c(OC)c1")
"inactive"

###

experimentalTarget: Cytochrome P450 2C9 (Homo sapiens)
assayOverview: Cytochrome P450 Family 2 Subfamily C Member 9 (CYP2C9) small molecule antagonists: luciferase reporter qHTS assay (AID 1671198); note: % is set by controls: 0 for no effect and ±100 for the full control effect; nearly all actives have a fitted effect of over 50% in size
conditionDescription: P450-Glo CYP2C9 enzyme assay, luciferin luminescence; series mostly up to 115 µM
Records with an inconclusive call do not appear. Activity calls are given as the source filed them. Calls follow the shape of the dose curve; as a rule, active = well fitted inhibition curve with a large enough effect in the repeat runs; inconclusive = weak or mixed curves; inactive = no such curve, though single readings can be large or run the other way.
measuredMetric: activity change, negative = inhibition

>>> datavalue("CCCCCCCCCCCCCC=O")
"-9.33% [at 10.5 µM] (inactive)"
>>> datavalue("CCc1nccnc1CC")
"2.92% [at 23.6 µM] (inactive)"
>>> datavalue("CCC(C)S (stereo unspecified)")
"-9.04% [at 4.07 µM] (inactive)"
>>> datavalue("NCCCNCCSP(=O)(O)O")
"10.3% [at 10.5 µM] (inactive)"
>>> datavalue("N[C@H](C(=O)O)c1ccc(O)cc1")
"-0.95% [at 23.6 µM] (inactive)"
>>> datavalue("Cc1cccn2c(=O)c(-c3nnn[nH]3)cnc12")
"-1.3% [at 23.6 µM] (inactive)"

###

experimentalTarget: Nuclear receptor subfamily 1 group I member 2 (Homo sapiens)
assayOverview: CYP3A4 induction through human pregnane X receptor (PXR) by small molecules, qHTS assay (AID 1346984); note: nearly all actives have a fitted effect of over 40% in size; for activation: % is set by controls: 0 for no effect and ±100 for the full control effect
conditionDescription: DPX-2 HepG2 PXR, CYP3A4-luciferin luminescence, 24 h; series mostly up to 46.1 µM
Inconclusive results are not listed. The source made the active and inactive calls. Calls follow the shape of the dose curve; as a rule, active = well fitted activation curve with a large enough effect in the repeat runs; inconclusive = weak or mixed curves; inactive = no such curve, though single readings can be large or run the other way.
Labels: 1 (yes) = active, 0 (no) = inactive

>>> label("Cc1[nH]c(=O)c(C#N)cc1-c1ccc2nccn2c1")
"0 (no)"
>>> label("Nc1nc2c(ncn2COC(CO)CO)c(=O)[nH]1")
"0 (no)"
>>> label("Cc1cc2c(cc1S(N)(=O)=O)S(=O)(=O)CCC2")
"0 (no)"
>>> label("N=C(N)c1ccc2cc(OC(=O)c3ccc(N=C(N)N)cc3)ccc2c1")
"0 (no)"
>>> label("NC(=O)c1cn(Cc2c(F)cccc2F)nn1")
"0 (no)"
>>> label("CN1CCN(c2cc3c(cc2F)c(=O)c(C(=O)O)cn3-c2ccc(F)cc2)CC1")
"0 (no)"
>>> label("CCOC(=O)Nc1ccc(NCc2ccc(F)cc2)nc1N")
"0 (no)"
>>> label("OC(CCN1CCCCC1)(c1ccccc1)C1CC2C=CC1C2 (stereo unspecified)")
"1 (yes)"
>>> label("CCCC(=O)O[C@]1(C(=O)CO)CC[C@H]2[C@@H]3CCC4=CC(=O)CC[C@]4(C)[C@H]3[C@@H](O)C[C@@]21C")
"0 (no)"
>>> label("c1ccc([C@H]2CN3CCSC3=N2)cc1")
"0 (no)"
>>> label("Cc1c(NC(C)C)c(=O)n(-c2ccccc2)n1C")
"0 (no)"
>>> label("O=C(O)COc1nn(Cc2ccccc2)c2ccccc12")
"0 (no)"
>>> label("FC(F)OC(Cl)C(F)(F)F (stereo unspecified)")
"0 (no)"
>>> label("FC1(F)C(F)(F)C(F)(F)C2(F)C(F)(F)C(F)(F)C(F)(F)C(F)(F)C2(F)C1(F)F (stereo unspecified)")
"0 (no)"
>>> label("CC(=O)Nc1c(I)cc(I)c(C(=O)O)c1I")
"0 (no)"
>>> label("CCN(CC)CCNC(=O)c1cc(S(C)(=O)=O)ccc1OC")
"0 (no)"
>>> label("CCOc1ccc(C(=O)OCCN(CC)CC)cc1")
"0 (no)"
>>> label("CN(C)CCCSc1ccccc1NC(=O)/C=C/c1ccccc1")
"0 (no)"
>>> label("CC(=O)OCC(CCn1cnc2cnc(N)nc21)COC(C)=O")
"0 (no)"
>>> label("CCCc1cc(C(N)=S)ccn1")
"0 (no)"
>>> label("O=C(CCCN1CCN(c2ccccn2)CC1)c1ccc(F)cc1")
"1 (yes)"

###

assayOverview: qHTS assay to identify small molecule agonists of the progesterone receptor (PR) signaling pathway - cell viability counter screen (AID 1346799); note: % is set by controls: 0 for no effect and ±100 for the full control effect; nearly all actives have a fitted effect of over 45% in size
conditionDescription: PR-UAS-bla HEK293T viability, CellTiter-Glo luminescence, 16 h; series mostly up to 92.4 µM
Records with an inconclusive call do not appear. Active and inactive are the calls of the source. Calls follow the shape of the full dose curve.
measuredMetric: activity change, negative = cytotoxicity

>>> datavalue("COc1ccc2c(c1)CCCC2=O")
"inactive"
>>> datavalue("Nc1ccc(S(=O)(=O)Nc2ccnn2-c2ccccc2)cc1")
"-4.95% [at 19 µM] (inactive)"
>>> datavalue("CCOC(=O)[C@H](CCc1ccccc1)N[C@@H](C)C(=O)N1[C@H](C(=O)O)C[C@@H]2CCC[C@@H]21")
"inactive"
>>> datavalue("CC(=O)N(CC(O)CO)c1c(I)c(C(=O)NCCO)c(I)c(C(=O)NCC(O)CO)c1I (centres undefined)")
"inactive"
>>> datavalue("O=C1CC2CC1C1CCCC21 (centres undefined)")
"inactive"
>>> datavalue("CCC(C)S (centres undefined)")
"1.88% [at 3.27 µM] (inactive)"
>>> datavalue("CN(C)CCCNCCCN(C)C")
"inactive"
>>> datavalue("OC1CCCCC1c1ccccc1 (centres undefined)")
"inactive"
>>> datavalue("COC(=O)[C@@H](N)Cc1ccc(O)c(O)c1")
"inactive"
>>> datavalue("CCOC(=O)CC(C)=O")
"inactive"
>>> datavalue("C=C(C)C(=O)OCCCCCCCC(C)C")
"inactive"
>>> datavalue("C[C@](N)(Cc1ccc(O)cc1)C(=O)O")
"2.57% [at 8.39 µM] (inactive)"
>>> datavalue("CC(=O)c1ccccc1O")
"inactive"
>>> datavalue("Cc1cnc(NS(=O)(=O)c2ccc(N)cc2)nc1")
"inactive"
>>> datavalue("CO[C@]12C[C@@H](COC(=O)c3cncc(Br)c3)CN(C)[C@@H]1Cc1cn(C)c3cccc2c13")
"inactive"
>>> datavalue("C/C=C(\\C)C#N")
"inactive"
>>> datavalue("NC(=O)c1ccc(N)cc1")
"inactive"
>>> datavalue("CCOC(=O)C(=O)OCC")
"inactive"
>>> datavalue("CC/C=C\\CCOC(C)=O")
"inactive"

###

assayOverview: qHTS assay to identify small molecule agonists of the AP-1 signaling pathway - cell viability counter screen (AID 1159525); note: nearly all actives have a fitted effect of over 55% in size
conditionDescription: ME-180 (cervical carcinoma) AP-1-bla cells viability, ATP luminescence, 5 h; series mostly up to 76.8 µM
Experimental: National Center for Advancing Translational Sciences [NCATS] NIH Chemical Genomics Center [NCGC] U.S. Environmental Protection Agency [EPA] National Institutes of Environmental Health Sciences [NIEHS] National Toxicology Program [NTP] […] After the plates were read for Beta-Lactamase assay on Envision; 3 ul Cell Titer Glo (Promega) was added to measure the cytotoxicity and the plates were then incubated at RT in dark for 30 min. […] ViewLux data was expressed as relative luminescence units. […]
Results filed as inconclusive are left out. Activity calls are given as the source filed them. Calls come from the whole dose curve.
measuredMetric: viability change, negative = cytotoxic

>>> datavalue("CCN(Cc1ccncc1)C(=O)C(CO)c1ccccc1 (stereo not drawn)")
"inactive"
>>> datavalue("CC(C)(CC(=O)O)C(=O)O")
"inactive"
>>> datavalue("CCCCCCCCCCCC")
"inactive"
>>> datavalue("CO[Si](CCCOCC1CO1)(OC)OC (stereo not drawn)")
"inactive"
>>> datavalue("N=c1nc(N2CCCCC2)cc(N)n1O")
"inactive"
>>> datavalue("O=c1n(CCO)c(=O)n(CCO)c(=O)n1CCO")
"inactive"
>>> datavalue("O=C1CCCCCCCCCCCN1")
"inactive"
>>> datavalue("NC(CSCC(=O)O)C(=O)O (stereo not drawn)")
"inactive"
